Tested on: large crabgrass (Digitaria sanguinalis)
Experiment: Test A pre-/postemergence plant response
Type: in vivo
Conditions: Postemergence, 125 g ai/ha; visual injury, 0 to 100 scale (0 no effect, 100 complete control), approx. ten days
Recorded Crabgrass, Large plant response rating values for a group of compounds are listed next.
Lab note: write the figure by itself, no unit.

Input CC(C)Cc1ncc(C(=O)C2=C(O)CCCC2=O)c(=O)n1-c1ccccc1 . Output Crabgrass, Large plant response rating: 80

Input Cc1ccc(C)c(-n2c(-c3ccccc3)ncc(C(=O)C3=C(O)CCCC3=O)c2=O)c1 . Output Crabgrass, Large plant response rating: 70

Input O=C1CCCC(O)=C1C(=O)c1cnc(-c2cccc(Br)c2)n(-c2ccccc2)c1=O . Output Crabgrass, Large plant response rating: 80

Input Cc1ccc(F)c(-n2c(-c3ccccc3)ncc(C(=O)C3=C(O)CCCC3=O)c2=O)c1 . Output Crabgrass, Large plant response rating: 90

---
Input O=C1CCCC(O)=C1C(=O)c1cnc(-c2ccc(Br)cc2)n(-c2ccccc2)c1=O . Output Crabgrass, Large plant response rating: 50

Input CCCCc1ncc(C(=O)C2=C(O)CCCC2=O)c(=O)n1-c1ccccc1C . Output Crabgrass, Large plant response rating: 70

Input Cc1ccc(-n2c(-c3ccccc3)ncc(C(=O)C3=C(O)CCCC3=O)c2=O)c(Cl)c1 . Output Crabgrass, Large plant response rating: 20

Input O=C1CCCC(O)=C1C(=O)c1cnc(-c2cccc(Cl)c2)n(-c2ccccc2)c1=O . Output Crabgrass, Large plant response rating: 90

Input O=C1CCCC(O)=C1C(=O)c1cnc(-c2ccc(Cl)cc2)n(-c2ccccc2)c1=O . Output Crabgrass, Large plant response rating: 40

Input O=C1CCCC(O)=C1C(=O)c1cnc(-c2ccccc2)n(-c2ccc(F)cc2)c1=O . Output Crabgrass, Large plant response rating: 70

Input Cc1cccc(-n2c(-c3ccccc3)ncc(C(=O)C3=C(O)CCCC3=O)c2=O)c1 . Output Crabgrass, Large plant response rating: 30

Input Cc1cccc(C)c1-n1c(-c2ccccc2)ncc(C(=O)C2=C(O)CCCC2=O)c1=O . Output Crabgrass, Large plant response rating: 50

Input COc1ccccc1-n1c(-c2ccccc2)ncc(C(=O)C2=C(O)CCCC2=O)c1=O . Output Crabgrass, Large plant response rating: 20

Input Cc1cc(Cl)ccc1-n1c(-c2ccccc2)ncc(C(=O)C2=C(O)CCCC2=O)c1=O . Output Crabgrass, Large plant response rating: 70

---

Test system: blackgrass (Alopecurus myosuroides)
Assay: Test B pre-/postemergence plant response
Assay type: in vivo
Details: Postemergence, 125 g ai/ha; scale 0 to 100 (0 no effect, 100 complete control)
Source text: […] Treated plants and controls were maintained in a greenhouse for 13 to 15 days, after which time all treated plants were visually evaluated and compared to controls. […]
Recorded Plant response rating, Blackgrass values for a group of molecules are listed next.
Lab note: write the figure by itself, no unit.

Answered examples (2):
Input COCCn1c(-c2ccco2)ncc(C(=O)C2=C(O)CCCC2=O)c1=O . Output Plant response rating, Blackgrass: 25

Input CCn1c(-c2cc(F)cc(F)c2)ncc(C(=O)C2=C(O)CCCC2=O)c1=O . Output Plant response rating, Blackgrass: 15

---
Input O=C1CCCC(O)=C1C(=O)c1cnc(-c2ccsc2)n(C2CCOCC2)c1=O . Output Plant response rating, Blackgrass: 5
